Test system: HIV mutant virus strain HXB2D with mutation Q40H in the gp41 gene
Assay: Standard AVE, HXB2D site directed mutant Q40H
Format: cell-based, HIV-1
Conditions: fold change vs wild type strain HXB2D
Starred links: 1 amine or outer side, 2 acyl side, 3 side chain; linkers in the order of their positions; H or OH if unused. Suc = O=C(CCC(=O)[*:2])[*:1]
endpoint: HIV-HXB2D Q40H mutant (fold change in EC50)

Suc-ACYLACIEALIRAAQEQQEKNEAALR-NH2 (cysteine pairing not given here) [Peptide 43] :: 103
Suc-ECYLRCIEELIRKAQEQQEKNEAALR-NH2 (cysteine pairing not given here) [Peptide 29] :: 98
Ac-ECYAACIEELIRKAQEQQEKNEAALR-NH2 [Peptide 53] :: >164
